meta.source: patent US20030236190A1

molecular target: T1, recombinant human IGF-1R (rhIGF-1R) (human, UniProt P08069 31-935); test: column 'nM Ki app Kd' of Table 15 (IGF-1R summary); values match the TRF competition with b-rhIGF-1 on rhIGF-1R of Table 20
T1 construct: extracellular domain; Coated on plates in the TRF assay and europium-labelled (LANCE) in the TR-FRET assays; also called rhIGE-1R; Eu3+-rhIGF-1R
Positions of bridges follow the written chain, without caps; N, C: chain ends. No end group written: not given here.
MEASURED PARAMETER: log10(Ki) (log10 of the value in nM)
Hello, just confirming the data are log10 of Ki with units of nM.

Take a look at these entries with their results.
| BINDER | log10(Ki) |
| --- | --- |
| WLDQERAWLWCEISGRGCLS (disulfide 11-18 (inferred), Recombinant form) [recombinant peptide surrogate D815 (rD815)] | 3.61 |
| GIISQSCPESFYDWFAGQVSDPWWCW (Recombinant form) [recombinant peptide surrogate G33 (rG33)] | 3.16 |
| WLDQERAWLWCEISGRGCLSGGSGGSGGSGGSGSLDESFYDWFERQLGKK (not fully specified (bridges); cysteine pairing not given here, Site 2-Site 1 dimer peptide, recombinant; also called D815-RP9 (12 aa linker); D815-12-RP9) [D815-12aa-RP9] | 0.48 |
| GSLDESFYDWFERQLG (also called RP9 minus terminal lysines) [RP9] | 2.62 |
| WLDQERAWLWCEISGRGCLSGGSGGSGSLDESFYDWFERQLGKK (Site 2-Site 1 dimer peptide, recombinant; also called D815-RP9 (6 aa linker); D815-6-RP9) [D815-6aa-RP9] | 1.56 |

The binder listed as D815-6aa-G33 (Site 2-Site 1 dimer peptide, recombinant; also called D815-G33 (6 aa linker); D815-6-G33) peptide: WLDQERAWLWCEISGRGCLSGGSGGSGIISQSCPESFYDWFAGQVSDPWWCW has a reported log10(Ki) of 2.80
